Origin of values: patent US10399985B2

target: human PDE10A (Homo sapiens (Human), UniProt Q9Y233)
Sequence (Q9Y233 other isoform, or with tags, fused parts or gaps): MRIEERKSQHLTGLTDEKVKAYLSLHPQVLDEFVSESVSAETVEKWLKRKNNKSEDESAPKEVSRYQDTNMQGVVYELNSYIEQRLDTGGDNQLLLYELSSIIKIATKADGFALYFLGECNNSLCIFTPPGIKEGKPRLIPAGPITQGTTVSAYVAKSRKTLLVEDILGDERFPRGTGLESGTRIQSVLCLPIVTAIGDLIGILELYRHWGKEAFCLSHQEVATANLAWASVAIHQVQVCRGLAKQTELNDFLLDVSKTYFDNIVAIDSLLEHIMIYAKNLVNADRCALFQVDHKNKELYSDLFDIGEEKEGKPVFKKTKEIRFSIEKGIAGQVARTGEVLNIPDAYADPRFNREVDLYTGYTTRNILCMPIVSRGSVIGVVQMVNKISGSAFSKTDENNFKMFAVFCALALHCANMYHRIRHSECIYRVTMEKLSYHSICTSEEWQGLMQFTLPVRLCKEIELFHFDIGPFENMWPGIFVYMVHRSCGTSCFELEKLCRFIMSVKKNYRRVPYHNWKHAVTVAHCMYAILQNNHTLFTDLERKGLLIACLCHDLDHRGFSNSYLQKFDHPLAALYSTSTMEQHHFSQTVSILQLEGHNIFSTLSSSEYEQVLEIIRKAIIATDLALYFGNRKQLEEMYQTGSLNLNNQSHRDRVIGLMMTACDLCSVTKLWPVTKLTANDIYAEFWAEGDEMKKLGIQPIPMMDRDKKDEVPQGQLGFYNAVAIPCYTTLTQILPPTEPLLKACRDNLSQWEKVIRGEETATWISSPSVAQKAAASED
READOUT: IC50 (nM)

SMILES_STRING: Cc1nc2ccc(CCc3nc(-c4ccccc4)nn3C)nn2c1C
TGT: human PDE10A (Homo sapiens (Human), UniProt Q9Y233)
RESULT_VALUE: 27.7
--
SMILES_STRING: Cc1c(C(F)F)nc2ccc(C#Cc3nc(-c4ccccc4)cn3C)nn12
TGT: human PDE10A (Homo sapiens (Human), UniProt Q9Y233)
RESULT_VALUE: 46.6
--
SMILES_STRING: Cc1c(C(F)F)nc2ccc(CCc3nc(-c4ccccc4)cn3C)nn12
TGT: human PDE10A (Homo sapiens (Human), UniProt Q9Y233)
RESULT_VALUE: 6.4
--
SMILES_STRING: Cc1c(C(F)(F)F)nc2ccc(CCc3nc(-c4ccccc4)cn3C)nn12
TGT: human PDE10A (Homo sapiens (Human), UniProt Q9Y233)
RESULT_VALUE: 20.5
--
SMILES_STRING: Cn1cc(-c2ccccc2)nc1COc1ccc2nc(C3CC3)cn2n1
TGT: human PDE10A (Homo sapiens (Human), UniProt Q9Y233)
RESULT_VALUE: 169

[1] Cc1c(C#N)nc2ccc(/C=C/c3nc(-c4ccccc4)cn3C)nn12
[2] Cn1cc(-c2ccccc2)nc1C#Cc1ccc2nc(C3CC3)c(CO)n2n1
[3] Cc1nc2ccc(CCc3nc(-c4ccccn4)cn3C)nn2c1C
[4] Cn1cc(-c2ccccc2)nc1COc1ccc2nc(C3CC3)c(CO)n2n1
Problem: Hi! Can you put these in order of IC50, lowest number first? Kindly provide the labels arranged according to the requested ordering.
Result: 2, 3, 1, 4
(2: 1.9 nM, 3: 3.3 nM, 1: 13.8 nM, 4: 167 nM)

[I] Cc1nc2ccc(CCc3nc(-c4ccccc4)cn3C)nn2c1CO
[II] COc1cc(OCc2nc(-c3ccccc3)cn2C)nn2c(C)c(C(F)(F)F)nc12
[III] Cc1c(C#N)nc2ccc(CCc3nc(-c4ccccc4)cn3C)nn12
[IV] Cn1cc(-c2ccccc2)nc1COc1ccc2nc3c(n2n1)CCC3
[V] Cc1nc2ccc(C#Cc3nc(-c4ccccc4)cn3C)nn2c1CO
Problem: Order the items by recorded IC50; the first position goes to the largest value. Kindly provide the labels arranged according to the requested ordering.
Result: IV, II, III, I, V
(IV: 47 nM, II: 11.8 nM, III: 5.4 nM, I: 3.4 nM, V: 1 nM)

[I] Cc1nn2ccc(CCc3nc(-c4ccccc4)cn3C)nc2c1C
[II] Cc1nc2ccc(CCc3nc(-c4cncnc4)cn3C)nn2c1C
[III] Cc1c(C2CC2)nc2ccc(C#Cc3nc(-c4ccccc4)cn3C)nn12
[IV] Cn1cc(-c2ccccc2)nc1CCc1ccc2nc(C3CC3)c(CO)n2n1
Problem: Hi! Can you put these in order of IC50, lowest number first? Kindly provide the labels arranged according to the requested ordering.
Result: I, III, II, IV

[a] Cc1nc2ccc(CCc3nc(-c4ccnnc4)cn3C)nn2c1C
[b] Cc1cn2nc(OCc3nc(-c4ccccc4)cn3C)ccc2n1
Problem: Between a and b , which one has the lower reported IC50 value? When you have decided, please share the label of that item.
Result: a
(a: 81.2 nM, b: 133 nM)
